TARGET_OR_TEST_SYSTEM: UniProtKB Q15858
TEST_METHOD_NOTES: Tritiated sulfonamide competitive binding to membranes from cells expressing hNav1.7 and the β1 subunit
STUDY_CONDITIONS: read-out: Ligand Binding Assay; 100 pM [3H]compound, membranes with hNav1.7 and β1 subunit, 18 h, room temperature
pIC50: −log10 of the molar value. Where a name gives a salt, the structure may show the parent alone.
Is pIC50 at least 8? Then label 1. If not, label 0.

COMPOUND	LABEL
C[C@@H](c1cc(Cl)cc(Cl)c1)N1CCC(F)(COc2cc(F)c(C(=O)NS(=O)(=O)C3CC3)cc2C2CC2)CC1	label 1

Q: Could you verify whether the entry CS(=O)(=O)NC(=O)c1cc(C2CC2)c(CN2CCC(OCc3ccc(F)cc3Cl)CC2)cc1F [Example 478, trifluoroacetic acid salt] shows pIC50 of no less than 8?
Result: label 0

Q: Also check CCS(=O)(=O)NC(=O)c1cc(C2CC2)c(OCC2CCN([C@@H](COC)c3ccc(Cl)cc3Cl)CC2)cc1F
Result: label 1

Q: Can you check CS(=O)(=O)NC(=O)c1cc(C2CC2)c(OCC2CCN(CC(F)(F)C(F)F)CC2)cc1F next?
Result: label 0

Q: Next record, please: CS(=O)(=O)NC(=O)c1cc(C2CC2)c(O[C@@H]2CCCN(Cc3ccc4c(c3)OCCO4)C2)cc1F [Example 429, trifluoroacetic acid salt]
Result: label 0

Q: How about CS(=O)(=O)NC(=O)c1cc(C2CC2)c(OCC2CCN(C(=O)c3cc(Cl)cc(Cl)c3)CC2)cc1F ?
Result: label 0

###

Hi there, I'd appreciate the recorded IC50 for every entry that follows.
TARGET_OR_TEST_SYSTEM: hNav1.7 (Homo sapiens (Human))
Sequence (Q15858 other isoform, or with tags, fused parts or gaps): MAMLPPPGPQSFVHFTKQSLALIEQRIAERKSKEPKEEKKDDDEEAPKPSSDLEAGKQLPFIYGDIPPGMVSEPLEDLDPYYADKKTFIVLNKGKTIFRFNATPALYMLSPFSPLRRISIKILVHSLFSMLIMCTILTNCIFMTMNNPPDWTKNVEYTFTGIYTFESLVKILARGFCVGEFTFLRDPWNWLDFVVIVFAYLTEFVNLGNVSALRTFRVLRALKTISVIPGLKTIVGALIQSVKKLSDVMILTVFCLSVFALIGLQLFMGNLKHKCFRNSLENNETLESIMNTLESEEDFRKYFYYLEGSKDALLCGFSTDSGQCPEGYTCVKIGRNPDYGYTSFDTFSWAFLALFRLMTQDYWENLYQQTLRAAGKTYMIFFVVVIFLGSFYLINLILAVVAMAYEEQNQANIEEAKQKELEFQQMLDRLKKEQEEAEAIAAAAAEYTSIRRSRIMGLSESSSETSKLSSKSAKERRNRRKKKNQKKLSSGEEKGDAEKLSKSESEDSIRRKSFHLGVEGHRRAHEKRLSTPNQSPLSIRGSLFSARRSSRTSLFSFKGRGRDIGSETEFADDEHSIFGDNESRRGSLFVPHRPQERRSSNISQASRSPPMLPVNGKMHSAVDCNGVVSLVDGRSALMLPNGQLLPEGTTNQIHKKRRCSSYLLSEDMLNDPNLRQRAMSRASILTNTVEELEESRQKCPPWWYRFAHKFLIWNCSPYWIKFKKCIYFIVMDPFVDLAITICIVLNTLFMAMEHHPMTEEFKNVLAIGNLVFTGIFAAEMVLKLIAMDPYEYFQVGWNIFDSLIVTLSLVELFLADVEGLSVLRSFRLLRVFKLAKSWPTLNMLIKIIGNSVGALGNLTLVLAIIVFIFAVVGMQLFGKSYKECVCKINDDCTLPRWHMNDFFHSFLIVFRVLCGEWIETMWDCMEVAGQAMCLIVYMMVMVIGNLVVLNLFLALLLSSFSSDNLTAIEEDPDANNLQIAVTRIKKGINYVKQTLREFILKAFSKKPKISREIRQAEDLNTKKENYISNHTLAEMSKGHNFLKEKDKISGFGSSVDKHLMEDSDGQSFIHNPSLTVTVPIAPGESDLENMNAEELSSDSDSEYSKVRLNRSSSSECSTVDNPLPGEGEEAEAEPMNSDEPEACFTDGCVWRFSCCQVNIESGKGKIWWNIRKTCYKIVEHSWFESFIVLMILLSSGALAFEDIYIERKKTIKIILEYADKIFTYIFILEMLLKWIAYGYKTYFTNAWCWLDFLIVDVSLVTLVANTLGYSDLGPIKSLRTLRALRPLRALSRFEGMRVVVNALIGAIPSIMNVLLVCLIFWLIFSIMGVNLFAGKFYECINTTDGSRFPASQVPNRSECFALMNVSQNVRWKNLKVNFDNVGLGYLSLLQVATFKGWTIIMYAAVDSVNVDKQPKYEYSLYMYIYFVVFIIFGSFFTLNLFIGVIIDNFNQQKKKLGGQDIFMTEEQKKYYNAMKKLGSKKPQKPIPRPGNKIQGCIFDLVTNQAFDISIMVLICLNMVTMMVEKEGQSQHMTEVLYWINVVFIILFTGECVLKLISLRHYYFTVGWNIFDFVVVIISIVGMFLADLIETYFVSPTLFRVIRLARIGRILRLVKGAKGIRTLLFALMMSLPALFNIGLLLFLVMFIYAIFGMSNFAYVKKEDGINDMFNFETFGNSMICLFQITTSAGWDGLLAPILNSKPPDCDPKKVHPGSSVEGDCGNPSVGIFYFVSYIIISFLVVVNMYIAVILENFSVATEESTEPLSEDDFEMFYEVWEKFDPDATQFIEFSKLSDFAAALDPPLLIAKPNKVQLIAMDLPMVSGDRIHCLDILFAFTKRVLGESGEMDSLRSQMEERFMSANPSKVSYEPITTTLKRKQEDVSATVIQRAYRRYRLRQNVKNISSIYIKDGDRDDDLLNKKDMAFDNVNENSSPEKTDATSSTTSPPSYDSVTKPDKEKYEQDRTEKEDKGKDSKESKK
Sequence (Q07699 19-218 partner): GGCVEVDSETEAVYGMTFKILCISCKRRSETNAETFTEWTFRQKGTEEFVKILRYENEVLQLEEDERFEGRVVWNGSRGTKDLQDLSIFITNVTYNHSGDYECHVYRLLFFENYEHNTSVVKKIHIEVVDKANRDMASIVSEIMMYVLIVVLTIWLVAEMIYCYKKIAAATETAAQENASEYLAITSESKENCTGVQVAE
TEST_METHOD_NOTES: Tritiated sulfonamide competitive binding to membranes from cells expressing hNav1.7 and the β1 subunit
Counter-ions that a name gives are not always drawn.
The reply should consist of the numeric value with the unit placed after it.

Before answering, review these 2 worked examples.
COMPOUND	IC50
CS(=O)(=O)NC(=O)c1cc(C2CC2)c(CN2CCC(OCc3cc(Cl)cc(Cl)c3)CC2)cc1F [Example 511, trifluoroacetic acid salt]	23.5 nM
O=C(NS(=O)(=O)N1CCC1)c1cc(C2CC2)c(O[C@@H]2CCCN(Cc3ccccc3Cl)C2)cc1F	3.2 nM

Give measured IC50 for every item shown.
1. CS(=O)(=O)NC(=O)c1cc(C2CC2)c(O[C@@H]2CCCN(Cc3cccc(Cl)c3)C2)cc1F
2. O=C(NS(=O)(=O)N1CCC1)c1cc(C2CC2)c(O[C@@H]2CCCN(c3ccc(F)cc3)C2)cc1F [Example 37, trifluoroacetic acid salt]
3. CS(=O)(=O)NC(=O)c1cc(C2CC2)c(CN2CCC(Oc3cc(C(F)(F)F)c(Cl)cn3)CC2)cc1F [Example 521, trifluoroacetic acid salt]

Result:
1. 6.1 nM
2. 15.1 nM
3. 7.9 nM

Q: Need IC50, item CS(=O)(=O)NC(=O)c1cc(C2CC2)c(CN2CCC(Oc3ccccc3C(F)(F)F)CC2)cc1F
Result: 14.3 nM

###

TARGET_OR_TEST_SYSTEM: UniProtKB Q15858
TEST_METHOD_NOTES: Tritiated sulfonamide competitive binding to membranes from cells expressing hNav1.7 and the β1 subunit
STUDY_CONDITIONS: read-out: Ligand Binding Assay; 100 pM [3H]compound, membranes with hNav1.7 and β1 subunit, 18 h, room temperature
Structures can show the parent of a compound that is named as a salt.
# label = bin(measured IC50), where bins are L (below 5 nM), M (5 nM to below 20 nM), H (20 nM or more)

COMPOUND	TARGET_OR_TEST_SYSTEM	LABEL
CCS(=O)(=O)NC(=O)c1cc(C2CC2)c(OCC2(C)CN(C(c3ccccc3)c3ccccc3)C2)cc1F [Example 69]	UniProtKB Q15858	M
CCS(=O)(=O)NC(=O)c1cc(C2CC2)c(OCC2CCN([C@@H](c3cc(Cl)cc(Cl)c3)C(F)F)CC2)cc1F [Example 226]	UniProtKB Q15858	M
CC(c1cc(Cl)cc(Cl)c1)N1CCC(COc2cc(F)c(C(=O)NS(=O)(=O)C3CC3)cc2C2CC2)CC1 (stereo not shown) [Example 102]	UniProtKB Q15858	L
C[C@H](c1cc(Cl)cc(Cl)c1)N1CCC(COc2cc(F)c(C(=O)NS(=O)(=O)C3CC3)cc2Cl)CC1 [Example 405, trifluoroacetic acid salt]	UniProtKB Q15858	M
O=C(NS(=O)(=O)C1CC1)c1cc(C2CC2)c(OCC2CCN(S(=O)(=O)c3ccc(OC(F)(F)F)cc3)CC2)cc1F [Example 379]	UniProtKB Q15858	M
CC[C@@H](c1cc(Cl)cc(Cl)c1)N1CCC(COc2cc(F)c(C(=O)NS(C)(=O)=O)cc2C2CC2)CC1 [Example 241]	UniProtKB Q15858	L

Q: Each compound maps to one class by IC50. Which class for CC1(COc2cc(F)c(C(=O)NS(=O)(=O)C3CC3)cc2C2CC2)CN(C(c2ccccc2)c2cc(Cl)cc(Cl)c2)C1 (stereo not shown) [Example 421, trifluoroacetic acid salt] ?
Result: L

Q: Repeat with CC1(COc2cc(F)c(C(=O)NS(=O)(=O)N3CCC3)cc2C2CC2)CN(C(c2ccccc2)c2ccccc2)C1 [Example 71]
Result: L

Q: Cool, now CS(=O)(=O)NC(=O)c1cc(C2CC2)c(OCC2CCN(Cc3ccccc3C(F)(F)F)CC2)cc1F [Example 159]
Result: M

Q: Now try C[C@@H](c1ccc(F)cc1Cl)N1CCC(COc2cc(F)c(C(=O)NS(C)(=O)=O)cc2C2CC2)CC1 [Example 243] .
Result: M

Q: # iterate: Cc1cc(F)ccc1S(=O)(=O)N1CCC(COc2cc(F)c(C(=O)NS(C)(=O)=O)cc2C2CC2)CC1 [Example 386]
Result: H

Q: Would you kindly repeat that for CS(=O)(=O)NC(=O)c1cc(C2CC2)c(OCC2CCN(S(=O)(=O)c3ccc(Br)c(F)c3)CC2)cc1F [Example 368] ?
Result: H

Q: Moving on to CC(C)c1nc(CN2CCC(COc3cc(F)c(C(=O)NS(=O)(=O)C4CC4)cc3C3CC3)CC2)cs1 [Example 355, trifluoroacetic acid salt]
Result: H

###

TARGET_OR_TEST_SYSTEM: hNav1.7 (Homo sapiens (Human))
TEST_METHOD_NOTES: Tritiated sulfonamide competitive binding to membranes from cells expressing hNav1.7 and the β1 subunit
pIC50: −log10 of the molar value. Structures can show the parent of a compound that is named as a salt.
Classify as follows. Reported pIC50 greater than or equal to 8: class 1. Reported pIC50 below: class 0.

See these solved cases before continuing.
COMPOUND	LABEL
CS(=O)(=O)NC(=O)c1cc(C2CC2)c(CN2CCC([S+]([O-])c3cc(Cl)cc(Cl)c3)CC2)cc1F (stereo not drawn) [Example 534, trifluoroacetic acid salt]	class 0
O=C(NS(=O)(=O)C1CC1)c1cc(C2CC2)c(CN2CCC(Oc3ccc(F)cc3)CC2)cc1F [Example 508, trifluoroacetic acid salt]	class 0
CS(=O)(=O)NC(=O)c1cc(C2CC2)c(O[C@@H]2CCCN(c3cc(Cl)cc(Cl)c3)C2)cc1F [Example 44]	class 1

Q: Determine whether measured pIC50 meets or exceeds 8 for CS(=O)(=O)NC(=O)c1cc(C2CC2)c(CN2CCC(Oc3cc(Cl)cc(OC(F)(F)F)c3)CC2)cc1F [Example 548, trifluoroacetic acid salt]
Result: class 1

###

TARGET_OR_TEST_SYSTEM: hNav1.7 (Homo sapiens (Human))
TEST_METHOD_NOTES: Tritiated sulfonamide competitive binding to membranes from cells expressing hNav1.7 and the β1 subunit;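 note: Filter-bound radioactivity counted by liquid scintillation, nonspecific binding defined with excess unlabelled ligand, IC50 fitted to percent inhibition of specific binding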
STUDY_CONDITIONS: read-out: Ligand Binding Assay; 100 pM [3H]compound, membranes with hNav1.7 and β1 subunit, 18 h, room temperature
Where a name gives a salt, the structure may show the parent alone.
RECORDED_ENDPOINT: pIC50
One number for each entry, as −log10 of the molar value.

COMPOUND	pIC50
CS(=O)(=O)NC(=O)c1cc(C2CC2)c(OCC2CCN(Cc3ccc(C4CC4)cc3Cl)CC2)cc1F [Example 415, trifluoroacetic acid salt]	8.21
O=C(NS(=O)(=O)C1CC1)c1cc(C2CC2)c(OCC2CCN(S(=O)(=O)c3ccc(Br)c(Cl)c3)CC2)cc1F	8.00
CS(=O)(=O)NC(=O)c1cc(C2CC2)c(OCC2(F)CCN(Cc3cc(C(F)(F)F)cc(Cl)c3F)CC2)cc1F [Example 346, trifluoroacetic acid salt]	8.36
C[C@H](c1ccc(Cl)cc1Cl)N1CCC(C)(COc2cc(F)c(C(=O)NS(C)(=O)=O)cc2C2CC2)CC1	8.33
CCS(=O)(=O)NC(=O)c1cc(C2CC2)c(OCC2CCN(C(C)c3cc(Cl)cc(Cl)c3)CC2)cc1F (stereo not shown)	8.42
C[C@@H](c1cc(Cl)cc(C(F)(F)F)c1)N1CCC(C)(COc2cc(F)c(C(=O)NS(C)(=O)=O)cc2C2CC2)CC1 (single isomer, unassigned)	8.40

Give pIC50 for each of the items listed below.
1. CCS(=O)(=O)NC(=O)c1cc(C2CC2)c(OCC2(C)CN(c3ncc(C(F)(F)F)cc3Cl)C2)cc1F
2. CS(=O)(=O)NC(=O)c1cc(C2CC2)c(O[C@@H]2CCCN(Cc3cc(C(F)(F)F)cc(Cl)c3F)C2)cc1F

Result:
[8.48, 8.54]

Provide the reported pIC50 of each entry below, same order.
1. C[C@H]1CC[C@@H](Oc2cc(F)c(C(=O)NS(=O)(=O)C3CC3)cc2C2CC2)CN1Cc1ccc(F)cc1Cl
2. O=C(NS(=O)(=O)N1CCC1)c1cc(C2CC2)c(OCC2CCN(C(c3ccc(F)cc3)c3ccc(F)cc3)CC2)cc1F [Example 419, trifluoroacetic acid salt]

Result:
1. 8.54
2. 8.28
